So I've got a bunch of compounds here, and I need their composite z-score values.
Experiment: probe aInhba binding on compound microarray – biochemical, small-molecule microarray, 635/667 nm fluorescence, primary screen (AID 1148);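 also: score merges 667nm spot fluorescence with signal-to-noise for antibody binding to printed compounds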
Conditions: higher = more signal

Before answering, review these 10 worked examples.
compound=COc1ccc([Si](C)(C)[C@H]2[C@H](CCO)O[C@@]3(C(=O)N(Cc4ccccc4)c4ccc(N5CCCCC5=O)cc43)[C@@H]2C)cc1 result=-0.118
compound=O=C1O[C@@H](c2ccccc2)[C@@H](c2ccccc2)N2[C@@H](c3ccc(OCCO)cc3)[C@]3(C(=O)Nc4ccc(C#CC5=CCCCC5)cc43)[C@@H](C(=O)N3CCCCCCC3)[C@H]12 result=1.93
compound=CN(C)CCCC[C@@H]1NC(=O)[C@H]2C[C@@H](C(=O)NCCCCCN)[C@@H](c3cccc(OCCO)c3)N2C1=O result=0.495
compound=Cc1c(NC(=O)/C(C#N)=C/c2cccc([N+](=O)[O-])c2)c(=O)n(-c2ccccc2)n1C result=-0.0774
compound=COc1cc(CO)cc(I)c1O[C@H]1C=C(C(=O)NCCO)C[C@@H](N(C(=O)c2cc3ccccc3oc2=O)C2CCCCCC2)[C@@H]1O result=-0.157
compound=O=C(O)[C@@]1(CCS(=O)(=O)c2ccccc2)N=C(c2ccc(OCCCO)cc2)O[C@H]1c1ccccc1 result=0.102
compound="CCOc1cc(C(O)C2C=CC3C(=O)N(c4ccccc4)C(=O)C3N2Nc2ccc(C(C)C)cc2)ccc1O (stereo not given)" result=-0.0375
compound=COCCCNC(=O)[C@@]1(Sc2ccc(C)cc2)CC(=O)N(Cc2ccccc2Cl)[C@@H]1c1ccc(CO)cc1 result=-0.0331
compound="OCCCC1=CC(C2CC2)N(Cc2cccc(OC(F)(F)F)c2)CC1 (stereo not given)" result=-0.213
compound="O=C1C2C=CC(C(O)c3ccc(-c4ccccc4)s3)N(Nc3ccccc3)C2C(=O)N1c1ccccc1 (stereo not given)" result=0.0183

Count: 3. Required value per item: composite z-score.
1. C=CC[C@]1(C(N)=O)COC(c2ccc(OCCCO)cc2)=N1
2. NC(=O)N1C(=O)C2C(C1=O)C1C=C(CCCO)C2C(C2CC2)N1Cc1cc2c(cc1Br)OCO2 (stereo not given)
3. COC(=O)[C@@]1(CCC(=O)OC(C)(C)C)N=C(c2ccc(OCCCO)cc2)O[C@H]1c1ccccc1

Result:
0.027
-0.157
0.0319

State recorded composite z-score for all listed compounds.
1. COCCOC(=O)N1C(=O)[C@@]2(c3ccccc31)[C@H](C(N)=O)[C@H]1C(=O)O[C@H](c3ccccc3)[C@H](c3ccccc3)N1[C@@H]2c1ccc(O)cc1
2. C[N+](C)(C)CCCC[C@@H]1NC(=O)[C@@H]2C[C@H](C(=O)NCCCCCN)[C@H](c3ccc(O)cc3)N2C1=O

Result:
[-0.204, 0.491]
